- ASSAY_COMMENT: Prodrug in vivo pharmacokinetics in dogs (plasma, LC-MS-MS)
- Set-up: species or system Dog (Beagle)
- CONDITION_DESCRIPTION: Beagle, dog, plasma, po, 1 mg/kg, Example 72 in dog plasma after oral Example 72 (1 mg/kg active); Dog 1
ENDPOINT_LABEL: Tmax (min)

> print(dat)
                                   compound  endpoint.label  readout.number
1  CN(C)C(=O)ON1C(=O)[C@@H](N)Cc2cc(Oc3ccccc3)ccc21 [Example 72]            Tmax              30

----------
- ASSAY_COMMENT: Prodrug in vivo pharmacokinetics in monkeys (plasma, LC-MS-MS)
- CONDITION_DESCRIPTION: Cynomolgus, cynomolgus monkey, iv, 0.3 mg/kg, plasma exposure of Example 4 in monkeys following intravenous administration of Example 4 at 0.3 mg/kg
ENDPOINT_LABEL: AUC

> print(dat)
                chem.smiles  endpoint.label       result
1  N[C@H]1Cc2ccccc2N(O)C1=O             AUC  265 ng·h/mL
